biological target: Sigma non-opioid intracellular receptor 1 (Rattus norvegicus); assay: Percentage inhibition of rat C6 glioma cell proliferation mediated by sigma 1 receptor at 50 uM
Exercise: for every item that follows, state its recorded inhibition.
Answers are plain numbers, in %.

COc1ccc2c(c1)CCCC2CCCCN1CCC(C)CC1 (stereo not drawn) :: 53
COc1ccc2c(c1)CCCC2CCCCN1CCCCC1 (stereo not drawn) :: 47
COc1ccc2c(c1)CCCC2CCCN1CCCC(C)(C)C1 (stereo not drawn) :: 47
Cc1ccccc1NC(=N)Nc1ccccc1C :: 20
CC(C)=CCN1CC[C@]2(C)c3cc(O)ccc3C[C@H]1[C@H]2C [(+)-PENTAZOCINE] :: 35
c1ccc(CCN2CCCCC2)cc1 :: 5
O=C(Cc1ccc(Cl)c(Cl)c1)OCCN1CCCC1 :: 25

Let us move to another entry and its inhibition.
Q: Recall and state the measured inhibition for COc1ccc2c(c1)CCCC2CCCCN1CCCC(C)(C)C1 (stereo not drawn) .
Result: 31

====

target: 3-beta-hydroxysteroid-Delta(8),Delta(7)-isomerase (Cavia porcellus); test: Displacement of [3H](+/-)-emopamil from delta8-delta7 sterol isomerase (SI) site in guinea pig liver membranes
Sequence (Q60490 whole entry): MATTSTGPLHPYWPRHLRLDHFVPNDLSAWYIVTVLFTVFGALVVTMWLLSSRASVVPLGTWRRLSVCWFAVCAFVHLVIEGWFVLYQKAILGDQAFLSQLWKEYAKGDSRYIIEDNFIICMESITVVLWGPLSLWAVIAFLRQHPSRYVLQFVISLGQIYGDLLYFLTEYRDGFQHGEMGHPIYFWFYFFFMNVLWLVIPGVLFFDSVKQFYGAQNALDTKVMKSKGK
Assay Readout: pKi
One number for each entry, as −log10 of the molar value.

COc1ccc2c(c1)CCCC2CCCCN1CCC(C)(C)CC1 (configuration not stated) :: 8.39
COc1ccc2c(c1)CCCC2CCCCN1CCCCC1 (configuration not stated) :: 8.45
COc1ccc2c(CCCN3CCC(C)(C)CC3)cccc2c1 :: 8.04
COc1ccc2c(CCCCN3CCC(C)CC3)cccc2c1 :: 8.09

Would you be so kind as to report pKi for each listed record?
1. COc1ccc2c(CCCCN3CCC[C@@H](C)C3)cccc2c1
2. COc1ccc2c(CCCCN3CCCC[C@H]3C)cccc2c1
3. COc1ccc2c(CCCN3CCCC[C@@H]3C)cccc2c1
4. CC(C(O)c1ccc(O)cc1)N1CCC(Cc2ccccc2)CC1 (racemic)
5. COc1ccc2c(c1)CCCC2CCCN1CCC(C)CC1 (configuration not stated)

Result:
1. 7.84
2. 8.19
3. 7.33
4. 8.33
5. 8.27

====

molecular target: Sigma non-opioid intracellular receptor 1 (Cavia porcellus) (UniProt Q60492); assay: […] rat sigma 2 receptor over guinea pig sigma 1 receptor
Sequence (Q60492 whole entry): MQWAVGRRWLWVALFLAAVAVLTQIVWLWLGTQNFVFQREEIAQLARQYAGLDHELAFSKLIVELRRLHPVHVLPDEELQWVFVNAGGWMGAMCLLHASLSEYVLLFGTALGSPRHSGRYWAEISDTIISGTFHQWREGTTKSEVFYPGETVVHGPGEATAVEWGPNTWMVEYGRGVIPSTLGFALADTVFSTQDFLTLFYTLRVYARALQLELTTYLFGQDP
Just so you know, the groups by Ratio Ki go like this: low end (below 20), middle (20 to below 60), high end (60 or more)

Look over these answered cases.
COc1ccc2c(c1)CCCC2CCCCN1CCC(C)(C)CC1 (stereo not given) :: middle
COc1ccc2c(c1)CCCC2CCCN1CCCCC1 (stereo not given) :: middle
COc1ccc2c(CCCN3CCCC[C@H]3C)cccc2c1 :: middle
COc1ccc2c(CCCN3CCCC(C)(C)C3)cccc2c1 :: high end

Q: Field: class (Ratio Ki) — entry: COc1ccc2c(CCCCN3CCCCC3)cccc2c1
Result: high end

Q: Field: class (Ratio Ki) — entry: COc1ccc2c(CCCCN3CCC[C@H](C)C3)cccc2c1
Result: middle

Q: Field: class (Ratio Ki) — entry: COc1ccc2c(c1)CCCC2CCCCN1CCCCC1(C)C (stereo not given)
Result: low end

Q: Field: class (Ratio Ki) — entry: COc1ccc2c(c1)CCCC2CCCN1CCC(C)CC1 (stereo not given)
Result: low end

Q: Field: class (Ratio Ki) — entry: COc1ccc2c(CCCCN3CCCC(C)(C)C3)cccc2c1
Result: high end

Q: Field: class (Ratio Ki) — entry: COc1ccc2c(c1)CCCC2CCCN1CCCCC1(C)C (stereo not given)
Result: low end

Q: Field: class (Ratio Ki) — entry: COc1ccc2c(CCCN3CCCCC3(C)C)cccc2c1
Result: low end

Q: Field: class (Ratio Ki) — entry: COc1ccc2c(CCCN3CCC[C@H](C)C3)cccc2c1
Result: low end
